assay: in vitro; type: cell-based; conditions: mouse; RAW264.7 cells; 80 μM for 2 h, then LPS (500 ng/mL) 20 h; read-out: Cell viability, Average (%)
Please respond with reported viability at 22 h, 80 μM for every item in the list.
Answers are plain numbers, in %.

Examples with their reported viability at 22 h, 80 μM follow.
| molecule | measured_attribute | measurement_unit | numeric_readout |
| --- | --- | --- | --- |
| COc1ccc(C2C(C#N)=C(N)Oc3c2c(=O)oc2ccccc32)cc1 (stereo not shown) | viability at 22 h, 80 μM | % | 137 |
| COc1ccccc1C1C(C#N)=C(N)Oc2c1c(=O)oc1ccccc21 (stereo not shown) | viability at 22 h, 80 μM | % | 114 |
| Cc1ccc(C2C(C#N)=C(N)Oc3c2c(=O)oc2ccccc32)cc1 (stereo not shown) | viability at 22 h, 80 μM | % | 122 |
| N#CC1=C(N)Oc2c(c(=O)oc3ccccc23)C1c1ccccc1Cl (stereo not shown) | viability at 22 h, 80 μM | % | 124 |
| N#CC1=C(N)Oc2c(c(=O)oc3ccccc23)C1c1cccc(C(F)(F)F)c1 (stereo not shown) | viability at 22 h, 80 μM | % | 113 |

Count: 4. Required value per item: viability at 22 h, 80 μM.
1. N#CC1=C(N)Oc2c(c(=O)oc3ccccc23)C1c1ccccc1 (stereo not shown)
2. Cc1ccccc1C1C(C#N)=C(N)Oc2c1c(=O)oc1ccccc21 (stereo not shown)
3. N#CC1=C(N)Oc2c(c(=O)oc3ccccc23)C1c1ccc(F)cc1 (stereo not shown)
4. N#CC1=C(N)Oc2c(c(=O)oc3ccccc23)C1c1ccc(C(F)(F)F)cc1 (stereo not shown)

[117, 112, 110, 111]

Count: 2. Required value per item: viability at 22 h, 80 μM.
1. COc1cccc(C2C(C#N)=C(N)Oc3c2c(=O)oc2ccccc32)c1 (stereo not shown)
2. N#CC1=C(N)Oc2c(c(=O)oc3ccccc23)C1c1cccc(C#N)c1 (stereo not shown)

1: 96.3; 2: 102

###

assay: in vitro; format: cell-based; conditions: mouse; RAW264.7 cells; 40 μM for 2 h, then LPS (500 ng/mL) 20 h; read-out: Cell viability, Average (%)
Please respond with reported viability at 22 h, 40 μM for every item in the list.
One number for each entry, in %.

Examples with their reported viability at 22 h, 40 μM follow.
| compound | measured_attribute | measurement_unit | numeric_readout |
| --- | --- | --- | --- |
| N#CC1=C(N)Oc2c(c(=O)oc3ccccc23)C1c1ccccc1F (stereo not shown) [Coumarin derivative 1] | viability at 22 h, 40 μM | % | 96 |
| Cc1ccc(C2C(C#N)=C(N)Oc3c2c(=O)oc2ccccc32)cc1 (stereo not shown) [Coumarin derivative 11] | viability at 22 h, 40 μM | % | 108 |
| COc1ccc(C2C(C#N)=C(N)Oc3c2c(=O)oc2ccccc32)cc1 (stereo not shown) [Coumarin derivative 17] | viability at 22 h, 40 μM | % | 122 |
| COc1ccccc1C1C(C#N)=C(N)Oc2c1c(=O)oc1ccccc21 (stereo not shown) [Coumarin derivative 15] | viability at 22 h, 40 μM | % | 112 |
| N#CC1=C(N)Oc2c(c(=O)oc3ccccc23)C1c1ccc(OC(F)(F)F)cc1 (stereo not shown) [Coumarin derivative 14] | viability at 22 h, 40 μM | % | 95.8 |

Count: 2. Required value per item: viability at 22 h, 40 μM.
1. N#CC1=C(N)Oc2c(c(=O)oc3ccccc23)C1c1cccc(C(F)(F)F)c1 (stereo not shown) [Coumarin derivative 5]
2. N#CC1=C(N)Oc2c(c(=O)oc3ccccc23)C1c1ccccc1C(F)(F)F (stereo not shown) [Coumarin derivative 4]

[110, 91.2]
